System under test: Human IP6K1 (Homo sapiens, UniProt Q92551)
Construct: GST (N, cleaved yes); made in house; host or cells: C43 E. coli, pGEX-6P-2
Sequence (Q92551 whole entry): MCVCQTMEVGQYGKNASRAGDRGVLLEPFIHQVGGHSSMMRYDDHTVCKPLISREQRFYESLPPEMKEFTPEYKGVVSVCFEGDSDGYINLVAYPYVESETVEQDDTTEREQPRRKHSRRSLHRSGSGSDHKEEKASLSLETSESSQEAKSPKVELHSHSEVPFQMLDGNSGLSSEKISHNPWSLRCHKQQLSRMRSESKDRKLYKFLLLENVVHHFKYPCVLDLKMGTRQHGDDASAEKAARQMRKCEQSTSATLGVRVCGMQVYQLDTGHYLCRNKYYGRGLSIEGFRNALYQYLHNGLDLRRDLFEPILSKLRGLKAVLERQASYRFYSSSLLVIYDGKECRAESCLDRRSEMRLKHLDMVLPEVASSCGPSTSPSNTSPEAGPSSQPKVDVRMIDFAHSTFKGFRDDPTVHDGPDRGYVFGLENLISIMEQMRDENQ
Test description: IP6K1 high-throughput screen of the Sigma LOPAC (ADP-Glo Max, single point);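 note: final compound concentration 10µM in 5% DMSO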
Format: biochemical
Experimental conditions: Sigma LOPAC single-point screen, ADP-Glo Max raw signal per well
The threshold is inclusive: Raw Signal of exactly 60000 counts as Satisfied; values below receive Not satisfied.

Check out these entries, answers already filled in.
CC(C)(CO)Cc1cc(C(C)(C)C)c(O)c(C(C)(C)C)c1: Satisfied
Cc1ccc(OCC(O)C(C)NC(C)C)c2c1CCC2.Cl (stereo not drawn) [ICI 118,551 hydrochloride]: Not satisfied

Now, please, on to the next compound.
Ask | Quick check, Raw Signal >= 60000? CC(C)Cn1c(=O)n(C)c(=O)c2[nH]cnc21
Reply | Satisfied

* * *

System under test: Human IP6K1 (Homo sapiens)
Construct: GST (N, cleaved yes); made in house; host or cells: C43 E. coli, pGEX-6P-2
Test description: IP6K1 high-throughput screen of the Sigma LOPAC (ADP-Glo Max, single point);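 note: final compound concentration 10µM in 5% DMSO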
Type: biochemical
Experimental conditions: LOPAC single-point screen, ADP-Glo Max raw signal per well
Structures can show the parent of a compound that is named as a salt.
I'd be grateful if you could share measured Raw Signal for these entries.
Answers are plain numbers.

Reference set (5 entries):
Cc1ccc(=O)n(-c2ccccc2)c1: 52089
O=C(Nc1ccccc1)c1cc([N+](=O)[O-])ccc1Cl: 52726
Cl.O=C(O)C1CCCN(CCC=C(c2ccccc2)c2ccccc2)C1 (stereo not shown) [SKF 89976A hydrochloride]: 57225
Cn1c(=O)c2c(nc(C=Cc3cccc(Cl)c3)n2C)n(C)c1=O: 56359
O=C1NC(=O)C(c2ccccc2)(c2ccccc2)N1: 54091

// each listed compound needs a value for Raw Signal
1. CSC(=N)N.CSC(=N)N.O=S(=O)(O)O [S-Methylisothiourea hemisulfate]
2. COc1ccccc1OCC(O)CN1CCN(CC(=O)Nc2c(C)cccc2C)CC1 (stereo not shown) [Ranolazine dihydrochloride]
3. Cl.NCCCCNS(=O)(=O)c1ccc2c(Cl)cccc2c1

Reply |
1: 51759; 2: 54866; 3: 59537

// each listed compound needs a value for Raw Signal
1. Br.C=CCN1CCc2cc(O)c(O)cc2C(c2ccc(O)cc2)C1 (racemic) [(±)-SKF 38393, N-allyl-, hydrobromide]
2. CC(C)C[C@H](NC(=O)[C@@H](O)[C@H](N)Cc1ccccc1)C(=O)O [Bestatin hydrochloride]
3. NNCc1cccc(O)c1 [3-Hydroxybenzylhydrazine dihydrochloride]
4. CC(C)C[C@H]1C(=O)N2CCC[C@H]2[C@]2(O)O[C@](NC(=O)[C@@H]3C=C4c5cccc6[nH]c(Br)c(c56)C[C@H]4N(C)C3)(C(C)C)C(=O)N12.CS(=O)(=O)O [(+)-Bromocriptine methanesulfonate]
5. C[C@]12CCC(=O)C=C1CC[C@@H]1[C@@H]2CC[C@@]2(C)[C@H]1CC[C@]2(O)C(=O)CO [Cortexolone]
6. C[Se]C[C@H](N)C(=O)O.Cl [Se-(methyl)selenocysteine hydrochloride]

Reply |
54138
54023
53590
59214
55575
55528

// each listed compound needs a value for Raw Signal
1. Cl.Cl.Cn1cnc(CCN)c1 [1-Methylhistamine dihydrochloride]
2. CN1[C@@H]2CC[C@H]1C[C@@H](OC(=O)c1cc(Cl)cc(Cl)c1)C2 [3-Tropanyl-3,5-dichlorobenzoate]

Reply |
1. 52776
2. 53877

* * *

System under test: Human IP6K1 (Homo sapiens, UniProt Q92551)
Construct: GST (N, cleaved yes); made in house; host or cells: C43 E. coli, pGEX-6P-2
Test description: IP6K1 high-throughput screen of the Sigma LOPAC (ADP-Glo Max, single point);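 note: final compound concentration 10µM in 5% DMSO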
Assay type: biochemical
Experimental conditions: Sigma LOPAC single-point screen; Z-score from plate average and StDev
Where a name gives a salt, the structure may show the parent alone.
Recorded metric: Z-score
Numbers only.

CN1CC[C@@]2(C)c3cc(O)ccc3N(C)[C@@H]12.O=C(O)/C=C/C(=O)O [(-)-Eseroline fumarate]: 0.5018
CCN1CCC[C@H]1CNC(=O)c1c(O)c(Cl)cc(Cl)c1OC.O=C(O)C(O)C(O)C(=O)O (racemic) [S(+)-Raclopride L-tartrate]: 0.6375
C1CCc2nnnn2CC1: 0.5136

// each listed compound needs a value for Z-score
1. CC[N+](C)(C)c1cccc(O)c1 [Edrophonium chloride]
2. CCCn1c(=O)c2[nH]c(-c3ccc(OCC(=O)NCCN)cc3)nc2n(CCC)c1=O
3. NC(=O)N1c2ccccc2C=Cc2ccccc21 [Carbamazepine]
4. Cc1ccc(S(=O)(=O)N[C@@H](Cc2ccccc2)C(=O)CCl)cc1
5. COc1cc2ncnc(Nc3cccc(Cl)c3)c2cc1OC
6. CN(C)CCCN1c2ccccc2CCc2ccc(Cl)cc21 [Clomipramine hydrochloride]
7. CCN(CC)CCNC(=O)c1cc(S(C)(=O)=O)ccc1OC [Tiapride hydrochloride]
8. O=C(O)CCC(C(=O)O)N1C(=O)c2ccccc2C1=O (stereo not drawn)

Reply |
1: 0.6015; 2: 1.052; 3: 0.4739; 4: 0.6213; 5: 0.3628; 6: 0.4632; 7: 0.4378; 8: 0.9042

* * *

I'd be grateful if you could share measured Z-score for these entries.
System under test: Human IP6K1 (Homo sapiens)
Construct: GST (N, cleaved yes); made in house; host or cells: C43 E. coli, pGEX-6P-2
Test description: IP6K1 high-throughput screen of the Sigma LOPAC (ADP-Glo Max, single point);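 note: final compound concentration 10µM in 5% DMSO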
Assay type: biochemical
Experimental conditions: Sigma LOPAC single-point screen; Z-score from plate average and StDev
Where a name gives a salt, the structure may show the parent alone.

Reference set (4 entries):
C[C@]12CCC(=O)C=C1CC[C@@H]1[C@@H]2C(=O)C[C@@]2(C)[C@H]1CC[C@]2(O)C(=O)CO [Cortisone]: 1.26
CC(C)[N+]1(C)[C@@H]2CC[C@H]1C[C@@H](OC(=O)C(CO)c1ccccc1)C2 (some centres unmarked) [Ipratropium bromide]: 0.3609
CC(C)CC(NC(=O)C1OC1C(=O)O)C(=O)NCCCCNC(=N)N (centres unmarked) [E-64]: 1.021
Cn1cc(C2=C(c3ccc(Cl)cc3Cl)C(=O)NC2=O)c2ccccc21 [SB 216763]: 0.3825

// each listed compound needs a value for Z-score
1. CC(C)(C)NCC(O)COc1cccc2[nH]c(=O)[nH]c12.Cl (racemic) [(±)-CGP-12177A hydrochloride]
2. O=C(c1ccc(F)cc1)C1CCN(CCn2c(=O)[nH]c3ccccc3c2=O)CC1 [Ketanserin tartrate]

Reply |
1. 0.512
2. 1.027

* * *

I'd be grateful if you could share measured Z-score for these entries.
System under test: Human IP6K1 (Homo sapiens, UniProt Q92551)
Construct: GST (N, cleaved yes); made in house; host or cells: C43 E. coli, pGEX-6P-2
Test description: IP6K1 high-throughput screen of the Sigma LOPAC (ADP-Glo Max, single point);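 note: final compound concentration 10µM in 5% DMSO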
Assay type: biochemical
Experimental conditions: LOPAC single-point screen; Z-score from raw signal with plate average and StDev
Structures can show the parent of a compound that is named as a salt.
Numbers only.

CCN(CC)C(=S)SSC(=S)N(CC)CC [Tetraethylthiuram disulfide]: -0.2648
Nc1c[n+](N2CCOCC2)no1.[Cl-] [3-Morpholinosydnonimine hydrochloride]: -0.2005
CCCCc1oc2ccccc2c1C(=O)c1cc(I)c(OCCN(CC)CC)c(I)c1 [Amiodarone hydrochloride]: -0.1228
Nc1nc(Nc2ccccc2)nc2c1ncn2[C@@H]1O[C@H](CO)[C@@H](O)[C@H]1O: -0.1422
O=C1CC[C@@]2(O)[C@H]3Cc4ccc(O)c5c4[C@@]2(CCN3CC2CC2)[C@H]1O5 [Naltrexone hydrochloride]: -0.3634

// each listed compound needs a value for Z-score
1. O=c1c2ccccc2nc2n1CCc1c-2[nH]c2ccccc12
2. N[C@]1(C(=O)O)CC[C@H](C(=O)O)C1 (racemic) [trans-(±)-ACPD]
3. C=C[C@H]1C[N@@]2CC[C@H]1C[C@H]2[C@H](O)c1ccnc2ccc(OC)cc12 [Quinine sulfate]

Reply |
[-0.3703, -0.1656, -0.4388]

* * *

System under test: Human IP6K1 (Homo sapiens)
Construct: GST (N, cleaved yes); made in house; host or cells: C43 E. coli, pGEX-6P-2
Test description: IP6K1 high-throughput screen of the Sigma LOPAC (ADP-Glo Max, single point);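 note: final compound concentration 10µM in 5% DMSO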
Type: biochemical
Experimental conditions: Sigma LOPAC single-point screen, ADP-Glo Max raw signal per well
I'd be grateful if you could share measured Raw Signal for these entries.
One number for each entry.

Cn1cc(C2=C(c3ccc(Cl)cc3Cl)C(=O)NC2=O)c2ccccc21: 56670
O=C(O)Cc1c[nH]c2ccc(O)cc12 [5-Hydroxyindolacetic acid]: 56978
CNC(=O)OCC[N+](C)(C)C [Methylcarbamylcholine chloride]: 60360

Moving on to another molecule below.
Ask | Give recorded Raw Signal. O=c1ccn(C2OC(COP(=O)(O)OP(=O)([O-])O)C(O)C2O)c(=O)[nH]1.[Na+] (stereo not shown) [Uridine 5 -diphosphate sodium]
Reply | 58265

Hey, just so you know, these numbers are from paper PMC5706701.
